Target of assay: BMAL1 (Homo sapiens)
Sequence (O00327 338-449): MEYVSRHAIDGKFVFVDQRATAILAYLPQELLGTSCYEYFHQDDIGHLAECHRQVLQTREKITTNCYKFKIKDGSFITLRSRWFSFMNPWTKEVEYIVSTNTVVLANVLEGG
Set-up: PASB domain (residues 338–449); Protein thermal shift (PTS) fragment screen on recombinant human BMAL1(PASB), shift of melting temperature
Run conditions: dTmB; binder
Decide using Bmal1(PASB) dTmB alone. Strictly below -0.7 °C: t. Equal to or above -0.7 °C: f.

Answered cases to consult:
| Molecule | Target of assay | Label class |
| --- | --- | --- |
| CC(O)(c1ccccc1)c1ccccn1 (centres unmarked) [Prestw-Frag-2237, Compound 355] | BMAL1 (Homo sapiens) | t |
| O=C(Cc1ccccc1)NO [Prestw-Frag-1961, Compound 252] | BMAL1 (Homo sapiens) | f |
| Cc1c(N)cccc1C(F)(F)F [Prestw-Frag-1189, Compound 334] | BMAL1 (Homo sapiens) | f |
| O=C(O)Cc1ccccc1 [Prestw-Frag-2579, Compound 132] | BMAL1 (Homo sapiens) | f |

Q. Strictly below -0.7 °C: is that where Bmal1(PASB) dTmB of Nc1ccnc2ccccc12 [Prestw-Frag-1878, Compound 323] sits?
A. f
